Reference source for all entries: ChEMBL document CHEMBL5705905

- test-system: Serine/threonine-protein kinase 3 (Homo sapiens, UniProt Q13188)
- Sequence (Q13188 whole entry): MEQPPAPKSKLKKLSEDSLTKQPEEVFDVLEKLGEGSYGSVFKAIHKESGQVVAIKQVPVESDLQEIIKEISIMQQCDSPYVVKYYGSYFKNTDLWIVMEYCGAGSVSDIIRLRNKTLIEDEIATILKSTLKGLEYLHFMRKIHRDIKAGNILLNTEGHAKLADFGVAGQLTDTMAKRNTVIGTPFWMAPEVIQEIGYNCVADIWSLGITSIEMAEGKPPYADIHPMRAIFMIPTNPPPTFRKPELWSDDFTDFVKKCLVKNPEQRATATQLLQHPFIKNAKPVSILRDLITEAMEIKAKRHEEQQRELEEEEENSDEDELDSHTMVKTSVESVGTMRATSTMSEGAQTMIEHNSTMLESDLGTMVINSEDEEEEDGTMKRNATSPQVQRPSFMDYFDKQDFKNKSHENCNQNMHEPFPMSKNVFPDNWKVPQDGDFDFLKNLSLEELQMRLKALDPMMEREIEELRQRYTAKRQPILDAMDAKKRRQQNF
- experiment-summary: Inhibition of recombinant His-tagged full-length MST2 (unknown origin) expressing in Escherichia coli assessed as MOB1a phosphorylation level incubated for 30 min in the presence of 300 uM ATP by immunoblot analysis
observation-type: IC50 (nM)
I only need the number, in nM, no unit after it.

Task: Need IC50, item CN1C(=O)c2sccc2N(C)c2nc(Nc3ccc(S(N)(=O)=O)cc3)ncc21
Result: 1500

* * *

observation-type: Kd

Task: Which measured Kd belongs to CN1C(=O)c2sccc2N(C)c2nc(Nc3ccc(S(N)(=O)=O)cc3)ncc21 , tested on Serine/threonine-protein kinase 24 (Homo sapiens, UniProt Q9Y6E0)?
Result: 18 nM

* * *

- test-system: Serine/threonine-protein kinase 26 (Homo sapiens, UniProt Q9P289)
- Sequence (Q9P289 whole entry): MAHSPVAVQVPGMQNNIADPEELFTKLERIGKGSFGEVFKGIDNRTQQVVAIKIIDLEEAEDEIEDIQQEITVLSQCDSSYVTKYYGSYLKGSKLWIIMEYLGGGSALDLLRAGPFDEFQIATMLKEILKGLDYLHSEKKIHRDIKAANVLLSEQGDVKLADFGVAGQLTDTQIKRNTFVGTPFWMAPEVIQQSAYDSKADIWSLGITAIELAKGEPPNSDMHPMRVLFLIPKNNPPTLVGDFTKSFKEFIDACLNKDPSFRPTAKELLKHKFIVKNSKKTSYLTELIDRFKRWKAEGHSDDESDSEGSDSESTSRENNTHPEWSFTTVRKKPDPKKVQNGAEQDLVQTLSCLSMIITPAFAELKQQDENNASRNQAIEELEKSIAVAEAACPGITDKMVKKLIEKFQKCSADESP
observation-type: pKd
Kindly note that pKd refers to -log10 of the concentration in mol/L and answer with the value alone.

Task: Which measured pKd belongs to CN1C(=O)c2sccc2N(C)c2nc(Nc3ccc(S(N)(=O)=O)cc3)ncc21 , tested on Serine/threonine-protein kinase 26 (Homo sapiens, UniProt Q9P289)?
Result: 7.80

* * *

- test-system: Serine/threonine-protein kinase TAO3 (Homo sapiens, UniProt Q9H2K8)
- Sequence (Q9H2K8 whole entry): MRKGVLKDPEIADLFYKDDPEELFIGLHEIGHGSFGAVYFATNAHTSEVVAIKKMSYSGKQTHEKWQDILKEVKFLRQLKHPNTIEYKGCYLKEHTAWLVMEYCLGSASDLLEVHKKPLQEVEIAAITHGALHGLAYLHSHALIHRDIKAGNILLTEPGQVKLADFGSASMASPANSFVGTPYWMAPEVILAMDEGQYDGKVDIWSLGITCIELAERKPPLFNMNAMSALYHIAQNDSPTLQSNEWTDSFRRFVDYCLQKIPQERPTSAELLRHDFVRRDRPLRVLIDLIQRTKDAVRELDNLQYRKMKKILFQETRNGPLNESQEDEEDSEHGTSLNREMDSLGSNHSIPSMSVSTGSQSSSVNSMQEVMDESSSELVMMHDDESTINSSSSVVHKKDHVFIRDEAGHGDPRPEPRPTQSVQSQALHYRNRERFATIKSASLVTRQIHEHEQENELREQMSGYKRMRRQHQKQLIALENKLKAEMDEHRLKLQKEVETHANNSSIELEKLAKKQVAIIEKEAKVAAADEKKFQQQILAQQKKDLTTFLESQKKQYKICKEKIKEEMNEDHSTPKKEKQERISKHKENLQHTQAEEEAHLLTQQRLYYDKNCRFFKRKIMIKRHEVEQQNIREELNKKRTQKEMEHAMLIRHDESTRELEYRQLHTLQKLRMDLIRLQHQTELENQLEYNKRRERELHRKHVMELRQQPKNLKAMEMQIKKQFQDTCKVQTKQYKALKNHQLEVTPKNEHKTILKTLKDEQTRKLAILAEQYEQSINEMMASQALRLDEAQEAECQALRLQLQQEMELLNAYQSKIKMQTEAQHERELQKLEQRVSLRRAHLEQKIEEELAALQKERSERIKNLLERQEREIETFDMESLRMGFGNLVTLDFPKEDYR
- experiment-summary: Inhibition of TAOK3 (unknown origin) in presence of ATP by enzymatic assay
observation-type: IC50 (nM)
I only need the number, in nM, no unit after it.

Task: Need IC50, item CN1C(=O)c2sccc2N(C)c2nc(Nc3ccc(S(N)(=O)=O)cc3)ncc21
Result: 254
